Kindly state inhibition for each of the entries shown.
ASSAY TARGET: Mannose-6-phosphate isomerase (Homo sapiens) (UniProt P34949)
Sequence (P34949 whole entry, looked up): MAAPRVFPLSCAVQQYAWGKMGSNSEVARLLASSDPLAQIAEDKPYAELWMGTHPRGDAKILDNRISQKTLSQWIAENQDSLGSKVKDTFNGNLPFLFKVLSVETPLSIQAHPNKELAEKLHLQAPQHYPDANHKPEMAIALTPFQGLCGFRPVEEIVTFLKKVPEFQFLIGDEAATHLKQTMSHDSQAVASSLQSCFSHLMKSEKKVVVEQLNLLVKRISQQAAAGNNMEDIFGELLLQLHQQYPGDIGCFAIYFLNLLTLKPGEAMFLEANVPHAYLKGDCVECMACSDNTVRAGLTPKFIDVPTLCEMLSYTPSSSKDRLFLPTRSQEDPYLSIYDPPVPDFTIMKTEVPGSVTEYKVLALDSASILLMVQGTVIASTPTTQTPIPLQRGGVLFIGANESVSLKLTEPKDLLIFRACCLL
PROTOCOL NOTES: MPI inhibition at elevated mannose 6-phosphate – biochemical, fluorescence intensity, high mannose 6-phosphate, primary screen (AID 1220)
CONDITION INFO: recombinant PMI enzyme, coupled fluorescence intensity; at 20 µM; active compounds read high
Out of some 190,000 compounds screened, about 1,300 (0.68%) were called active. Shown is part of a subset that was picked to be rich in actives.
One number for each entry, in %.

Before answering, review these 3 worked examples.
CC(C)CN(C(=O)CSc1nnc(-c2ccco2)o1)c1c(N)n(Cc2ccccc2)c(=O)[nH]c1=O
-2.6
Nc1cc(Cl)ccc1N1CCOCC1
-3.8
Nc1ccc(N2CCCCC2)c2nonc12
68.3

Read the next record carefully.
Request: Please state recorded inhibition (tested on Mannose-6-phosphate isomerase (Homo sapiens) (UniProt P34949)) of `Nc1ccc(N2CCCCC2)c(Cl)c1`
Result: 2.9

###

ASSAY TARGET: Mannose-6-phosphate isomerase (Homo sapiens) (UniProt P34949)
PROTOCOL NOTES: MPI inhibition at elevated mannose 6-phosphate – biochemical, fluorescence intensity, high mannose 6-phosphate, primary screen (AID 1220)
CONDITION INFO: recombinant PMI enzyme, coupled fluorescence intensity; at 20 µM; active compounds read high
Hit rate of the full screen: of about 190,000 compounds, about 1,300 (0.68%) were called active. Shown is part of a subset that was picked to be rich in actives.
Exercise: for every item that follows, state its recorded inhibition.

Answered cases to consult:
COc1ccc(C(=O)NCc2nnc(SCC(=O)Nc3cccc(F)c3)o2)cc1
-10.6% (inactive)
O=C1CN(CC(=O)N2CCCCC2)c2ccccc2O1
51.6% (active)
O=C(c1ccc(Br)o1)N1CCN=C1SCc1cccnc1
2.2% (inactive)

Hi team, please reply with inhibition for each item in this list.
1. COc1cc(NC(=S)N2CCC(C(O)(c3ccccc3)c3ccccc3)CC2)cc(OC)c1
2. O=C(NC(=S)Nc1nc(-c2ccc(Cl)cc2)cs1)c1cccs1

Result:
["52.9% (active)", "-11.6% (inactive)"]

###

ASSAY TARGET: Mannose-6-phosphate isomerase (Homo sapiens)
PROTOCOL NOTES: MPI inhibition at elevated mannose 6-phosphate – biochemical, fluorescence intensity, high mannose 6-phosphate, primary screen (AID 1220)
CONDITION INFO: recombinant PMI enzyme, coupled fluorescence intensity; at 20 µM; active compounds read high
Hit rate of the full screen: of about 190,000 compounds, about 1,300 (0.68%) were called active. The sample holds actives, similar compounds and a random draw of the others, so the mix is not that of the screen.
ASSAY READOUT: inhibition (%)
Answers are plain numbers, in %.

Below, 5 compounds whose answers are already recorded.
COc1ccc(CCNC(=O)CN2C(=O)NC(C)(c3ccc([N+](=O)[O-])cc3)C2=O)cc1 (centres undefined)
-0.6
CC(C)(C)NS(=O)(=O)c1ccc(OCC(=O)NCCC2=CCCCC2)cc1
1.2
COc1ccc(-n2c(CSc3nc(C)cc(C)n3)nnc2SCC(=O)Nc2nccs2)cc1
1.3
N#CC1=C(N)Oc2c(sc3ccccc23)C1c1ccco1 (centres undefined)
53.1
CCOC(=O)C1=C(CSc2nccn2C)NC(=O)NC1c1cc(C)ccc1C (centres undefined)
-2

Provide inhibition for all items below, preserving their order.
1. Oc1ccc2ccccc2c1CN1CCCC1
2. CN(C)S(=O)(=O)c1cccc(NC(=S)NC2CCCCC2)c1
3. Oc1ccc2ccccc2c1CN1CCN(c2ccccc2)CC1
4. CN1CCN(Cc2c(O)ccc3c(-c4ccccc4)cc(=O)oc23)CC1
5. O=C(CSc1nnc(C2CC2)n1Cc1ccccc1)N1CCN(S(=O)(=O)c2ccccc2)CC1

Result:
1. 67.8
2. -2.3
3. -35.5
4. 1.7
5. -3.7

Respectfully, I request inhibition for each entry included below.
1. O=C(CCNC(=O)c1ccccc1)Oc1ccc([N+](=O)[O-])cc1
2. CCC(=O)NC1=C(NC(C)c2ccccc2)C(=O)c2ccccc2C1=O (centres undefined)
3. COC(=O)C1=C(C)OC(N)=C(C#N)C1c1ccco1 (centres undefined)
4. Cc1ccc2cc(CN(Cc3ccccc3)Cc3nnnn3C3CCCC3)c(=O)[nH]c2c1
5. CN(C)c1ccc(N/C=C/C(=O)C(F)(F)F)cc1
6. COc1ccc(C(=O)n2nnc3ccccc32)cc1OC

Result:
[-10.4, -10.2, 2.9, 5.3, 56.5, 6]

For every item below, please supply its inhibition.
1. Cc1ccc(C2C(C#N)=C(N)Oc3c2sc2ccccc32)o1 (centres undefined)
2. COc1ccc(N/C=C/C(=O)C(F)(F)F)cc1
3. CCC(=O)N(C1=C(NC(C)C)C(=O)c2ccccc2C1=O)C(C)C
4. O=C(OC1CCN(c2ncc(C(F)(F)F)cc2Cl)CC1)c1ccccc1
5. c1ccc2c(-n3cccn3)cccc2c1
6. CCn1c(SCC(=O)NCc2ccccc2)nc2c(c1=O)SC(C)C2 (centres undefined)

Result:
[57.5, 14.6, 58.2, 11.4, -0.8, 2.5]

Provide reported inhibition for each item, in the same order as listed.
1. CC(=O)Nc1cc(N=Cc2ccc(O)cc2O)c(Cl)cc1Cl
2. O=C1C=C(Nc2ccc(O)cc2)CC(c2ccco2)C1 (centres undefined)
3. Nc1ccc2nn(-c3cccc4ccccc34)nc2c1
4. Nc1ccc2oc(-c3cccc4ccccc34)nc2c1

Result:
44.8
60.2
62.8
45.3

Give inhibition for all compounds that follow.
1. CCn1c(SCC(=O)N2CCN(S(=O)(=O)c3ccccc3)CC2)nnc1-c1cccs1
2. COc1ccc([N+](=O)[O-])cc1N(CC(=O)NC1CCCC1)S(C)(=O)=O
3. CN1CCN(Cc2c(O)ccc3cc(Br)ccc23)CC1
4. CCOC(=O)C1=C(C)OC(N)=C(C#N)C1c1ccc(C)o1 (centres undefined)
5. Cc1onc(-c2ccccc2)c1C(=O)N1CCN(C(=O)c2ccco2)CC1
6. CCC(=O)N(C)/C=C1\Sc2ccccc2C1=O

Result:
[-3.1, -1.4, 64.6, -3.7, 2, 5.7]

I would be grateful if you could provide inhibition for each of the following entries.
1. Cc1nnc(SCc2nnc(-c3cccs3)o2)n1Cc1ccccc1
2. CC(=O)C1=C(C)OC(N)=C(C#N)C1c1ccco1 (centres undefined)

Result:
1. -7.3
2. 10.4

Report inhibition for every entry below.
1. CN1CC(=O)N(CC(=O)N2CCC(Cc3ccccc3)CC2)C1=O
2. O=C(Cn1cncn1)NCc1ccc(Cl)cc1
3. COc1ccc(Cn2nnnc2C(c2ccc3ncccc3c2)N2CCN(C3CCCCC3)CC2)cc1 (centres undefined)
4. COCc1cc(C)nc(SCC(=O)Nc2ccccc2C)c1C#N
5. O=C(NNC(=O)C1CC(c2cccnc2)=NO1)Nc1ccccc1F (centres undefined)

Result:
[-3.5, -13.3, -3.1, -4.7, -6.2]

###

ASSAY TARGET: Mannose-6-phosphate isomerase (Homo sapiens) (UniProt P34949)
PROTOCOL NOTES: MPI inhibition at elevated mannose 6-phosphate – biochemical, fluorescence intensity, high mannose 6-phosphate, primary screen (AID 1220)
CONDITION INFO: recombinant PMI enzyme, coupled fluorescence intensity; at 20 µM
Out of some 190,000 compounds screened, about 1,300 (0.68%) were called active. No stated cut-off is given here; in the data, active means inhibition above about 50%; inactive means the rest. This excerpt belongs to a sample that is enriched for actives.
Answer with one of the outcomes given here: class 1 = active, class 0 = inactive

Previously resolved entries follow.
O=c1[nH][nH]c(C(F)(F)F)c1C=Nc1ccccc1Cl
class 0
Cc1cc2ccccn2c1C(=O)c1ccc(Cl)c([N+](=O)[O-])c1
class 0
O=c1oc2c(O)c(O)cc3c(=O)oc4c(O)c(O)cc1c4c23
class 1
CCOC(=O)N1CCC(N2C(=O)c3ccccc3C2Nc2cc(Cl)c(OC)cc2OC)CC1 (stereo not given)
class 0
CC(=O)N1c2ccccc2C2(O)N=C(C)SC12 (stereo not given)
class 1
CC1=CC(=O)C(C(C)C)=CC1=NC(=O)c1ccc(C)cc1
class 1

Request: // param item: `Cc1ccc(/C=C/C(=O)c2ccccc2)cc1` ; yields the recorded call
Result: class 0

Request: Please share the test call associated with `CC1=CC(=O)C(C(C)C)=C/C1=N/OC(=O)c1cccc([N+](=O)[O-])c1` .
Result: class 0

Request: State the result this test recorded for `Cc1ccc2nc3c(cc2c1)c(NC(=O)c1cccnc1)nn3C` .
Result: class 0

Request: Could you check what this test reported for `CC1=CC(=O)C(C(C)C)=C/C1=N\OC(=O)c1cccc2nc(C)oc12` ?
Result: class 0

Request: Answer briefly: the call reported for `Cc1ccc(C(=O)Nc2ccc(C(=O)N/N=C/c3c[nH]c4ccccc34)cc2)cc1` in this assay.
Result: class 0

Request: Dear colleague, could you share the recorded outcome for `CCCc1cc(=O)oc2c(C)c3occ(C)c3cc12` when you have a moment?
Result: class 0

Request: What was the test verdict on `CCCn1c(CNc2ccccc2O)nc2ccccc21` ?
Result: class 0

Request: Call for entry `COC(=O)/C=c1/s/c(=C(\C#N)C(=O)NCc2ccco2)n(-c2ccccc2)c1=O` :
Result: class 0

Data origin, for the record: PubChem BioAssay AID1220
